Biological target: recombinant human MetAP2 (Homo sapiens)
Construct: Flag; made in house; host or cells: Sf9 insect cells
Sequence (P50579 whole entry): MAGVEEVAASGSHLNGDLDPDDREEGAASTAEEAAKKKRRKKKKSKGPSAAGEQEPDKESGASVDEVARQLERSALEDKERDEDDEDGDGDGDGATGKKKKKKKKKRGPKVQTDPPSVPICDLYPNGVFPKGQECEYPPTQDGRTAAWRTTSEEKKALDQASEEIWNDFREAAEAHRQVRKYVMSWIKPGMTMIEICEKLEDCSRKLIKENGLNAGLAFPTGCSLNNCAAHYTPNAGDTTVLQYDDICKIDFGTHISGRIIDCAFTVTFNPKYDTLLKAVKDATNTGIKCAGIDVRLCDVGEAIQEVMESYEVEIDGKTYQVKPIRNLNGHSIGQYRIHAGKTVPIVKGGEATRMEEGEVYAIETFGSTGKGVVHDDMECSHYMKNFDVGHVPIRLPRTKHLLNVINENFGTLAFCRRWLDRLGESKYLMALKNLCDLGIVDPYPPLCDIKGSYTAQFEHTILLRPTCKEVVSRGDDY
Assay: Inhibition of recombinant human MetAP2 activity (Amplex red fluorescence assay)
Assay type: biochemical
Settings: manganese enzyme, 0.75 mM Methionine-Alanine-Serine (MAS) substrate, 30 minutes at 25° C., pH 7.5, 1% DMSO
Procedure: Compounds are tested for their capacity to inhibit recombinant human MetAP2 activity using the following assay. Human recombinant Flag-MetAP2 expressed in Sf9 cells followed by affinity purification and EDTA treatment to remove endogenous active site cation is dialysed against MnCl2 to produce the manganese enzyme used in the assay. […] The fluorescent signal is detected using a multiwell fluorimeter. […]
pIC50: −log10 of the molar value.
Provide the reported pIC50 of each item.

Please report the recorded pIC50 for O=C(O)c1c(NS(=O)(=O)c2ccccc2Cl)sc2c1CCCC2 . 5.70 to 6.70

// query pIC50 value for entry COc1ccccc1S(=O)(=O)Nc1sc2c(c1C(=O)O)CCCC2 > 6.70

// returns reported pIC50 for input O=C(O)c1c(NS(=O)(=O)c2ccccc2)sc2c1CCC2 5.70 to 6.70

Entry under review: O=C(O)c1c(NS(=O)(=O)c2ccc(Cl)cc2)sc2c1CCCC2 . Reported pIC50? 5.70 to 6.70

Report pIC50 for CCc1ccccc1S(=O)(=O)Nc1sc2c(c1C(=O)O)CCCC2 please. > 6.70

// lookup pIC50 for Cc1cc(F)ccc1S(=O)(=O)Nc1sc2c(c1C(=O)O)CCCC2 5.70 to 6.70

What value of measured pIC50 is listed for O=C(O)c1c(NS(=O)(=O)c2ccccc2)sc2c1CCCC2 ? > 6.70

# lookup: pIC50 of O=C(O)c1c(NS(=O)(=O)c2ccccc2)sc2c1CCCO2 > 6.70

Query (compound): CC1CCc2sc(NS(=O)(=O)c3ccccc3)c(C(=O)O)c2C1 (centres unmarked) ; field requested: pIC50 5.70 to 6.70

Can you look up the measured pIC50 of CC1(C)CCc2c(sc(NS(=O)(=O)c3ccccc3)c2C(=O)O)C1 for me? 5.70 to 6.70

What does the data say about its pIC50? Entry: O=C(O)c1c(NS(=O)(=O)c2cccc(Cl)c2)sc2c1CCCC2 5.70 to 6.70

Data provenance: patent US9221787B2
